testedOn: phosphoglycerate mutase (Leishmania major) (UniProt Q4Q090)
Sequence (Q4Q090 1-553): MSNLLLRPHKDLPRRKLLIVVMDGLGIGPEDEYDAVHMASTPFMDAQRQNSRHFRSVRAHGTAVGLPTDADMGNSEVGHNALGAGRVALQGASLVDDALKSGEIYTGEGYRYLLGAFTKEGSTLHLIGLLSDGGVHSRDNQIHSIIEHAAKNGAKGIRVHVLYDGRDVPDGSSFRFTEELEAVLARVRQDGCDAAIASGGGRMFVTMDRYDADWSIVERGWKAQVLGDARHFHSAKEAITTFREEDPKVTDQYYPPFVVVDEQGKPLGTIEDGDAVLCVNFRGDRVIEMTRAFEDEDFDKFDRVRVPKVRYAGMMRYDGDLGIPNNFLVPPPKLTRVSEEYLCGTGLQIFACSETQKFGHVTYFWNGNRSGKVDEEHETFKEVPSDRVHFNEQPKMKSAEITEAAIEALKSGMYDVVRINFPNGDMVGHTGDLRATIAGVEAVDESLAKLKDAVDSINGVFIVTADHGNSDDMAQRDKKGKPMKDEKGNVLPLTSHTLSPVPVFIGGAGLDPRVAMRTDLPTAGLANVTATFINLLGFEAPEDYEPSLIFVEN
methodNotes: qHTS Validation Assay to Find Inhibitors of Phosphoglycerate Mutase (AID 504548)
cond: biochemical enzyme activity; inhibition qHTS; series mostly up to 57.5 µM
Results filed as inconclusive are left out. The source made the active and inactive calls. Calls follow the shape of the dose curve; as a rule, active = well fitted curve in the direction sought with a large enough effect; inconclusive = small, poorly fitted or top-dose-only effect, or another doubt; inactive = no such curve, though single readings can be large or run the other way.
Select the correct class. Options are 1 (yes) (active), 0 (no) (inactive) and nothing else.

O=c1oc(Cl)c(Cl)c2ccccc12 ... 0 (no)

In: Call for entry CN(C)CCC(c1ccc(Br)cc1)c1ccccn1 (stereo not drawn) :
Out: 0 (no)

In: Call for entry COc1cc(/C=C(\C#N)C(=O)Nc2nnc(C(F)(F)F)s2)ccc1OCc1ccc(C(F)(F)F)cc1C(F)(F)F :
Out: 0 (no)

In: Call for entry Cn1c(=O)c2c(nc(/C=C/c3cccc(Cl)c3)n2C)n(C)c1=O :
Out: 0 (no)

In: Call for entry CNCCc1cnc(CCC(c2ccccc2)c2ccccc2)[nH]1 :
Out: 0 (no)

In: Call for entry CC[n+]1c(/C=C/C=C2/N(C)c3ccccc3C2(C)C)sc2ccccc21 :
Out: 1 (yes)

In: Call for entry Cn1c(=O)c2[nH]c(-c3ccc(S(=O)(=O)O)cc3)nc2n(C)c1=O :
Out: 0 (no)

In: Call for entry N=C(N)c1ccccc1 :
Out: 0 (no)

In: Call for entry CC[N+](CC)(CC)CC(=O)Nc1c(C)cccc1C :
Out: 0 (no)

In: Call for entry COC(=O)C(C)(N)Cc1ccc(O)cc1 (stereo not drawn) :
Out: 0 (no)

In: Call for entry CCCCCC(O)CCCC(=O)O (stereo not drawn) :
Out: 0 (no)

In: Call for entry O=C(O)/C=C/c1ccc(O)c(O)c1 :
Out: 0 (no)

In: Call for entry CCCc1c(OCCCOc2ccc(OCC(=O)O)cc2)ccc(C(C)=O)c1O :
Out: 0 (no)

In: Call for entry Oc1cc(O)c2c(c1)O[C@H](c1ccc(O)c(O)c1)[C@@H](O)C2 :
Out: 0 (no)

In: Call for entry CN1Cc2sccc2C(c2ccc(O)c(O)c2)C1 (stereo not drawn) :
Out: 0 (no)

In: Call for entry Fc1ccc(CN(C2=NCCN2)c2c(Cl)cccc2Cl)cc1 :
Out: 0 (no)

In: Call for entry N#C/C(=C\c1ccc(O)c(O)c1)C(=O)NCCCNC(=O)/C(C#N)=C/c1ccc(O)c(O)c1 :
Out: 0 (no)

In: Call for entry NC(C(=O)N[C@@H]1C(=O)N2C(C(=O)O)=C(Cl)CS[C@H]12)c1ccccc1 (stereo partly drawn) :
Out: 0 (no)

###

testedOn: Muscarinic acetylcholine receptor M1 (Rattus norvegicus)
methodNotes: qHTS Assay for Antagonists of Acetylcholine Muscarinic M1 Receptor: Kinetic Measurement of Intracellular Calcium Response (AID 943); also: nearly all actives have a fitted effect of over 75% in size
cond: M1-expressing cells, kinetic intracellular calcium fluorescence; series mostly up to 35.3 µM
Records with an inconclusive call do not appear. Calls of active or inactive are those of the source. Calls follow the shape of the dose curve; as a rule, active = well fitted inhibition curve with a large enough effect; inconclusive = small, poorly fitted or top-dose-only effect; inactive = no such curve, though single readings can be large or run the other way.
Select the correct class. Options are True for active, False for inactive and nothing else.

COc1ccc2c(c1)c(CC(=O)O)c(C)n2Cc1ccc(Cl)cc1 ... False

In: Call for entry NC/C=C\C(=O)O :
Out: False

In: Call for entry CCC(=O)N1CCN(C(=O)c2ccccc2)CC1 :
Out: False

In: Call for entry Cc1ccc2c(c1)C(N1CCN(C)CC1)=Nc1cccnc1N2 :
Out: True

In: Call for entry CCCCCCCCCCCCCCC[C@H](O)[C@H](N)CO :
Out: True

In: Call for entry C#CCn1c(=O)c2c(ncn2C)n(C)c1=O :
Out: False

In: Call for entry NCCCCN=C(N)N :
Out: False
